Tested on: Raji/COMPOUND IR cells
assay.remarks: Cytotoxicity study, MTS cell proliferation assay, 5 days
Type: cell-based, human
condition.info: Homo sapiens, Raji, Raji/COMPOUND IR cells
reported.property: IC50

For Raji/COMPOUND IR cells, give the measured IC50 of the entry Cc1[nH]c2ccc(F)cc2c1-c1nc2c3cccnc3c3ncccc3c2[nH]1 [COMPOUND I]
1.39 µM

###

System: AML cell lines and various forms of lymphoma cell lines
assay.remarks: Cytotoxicity study (MTS), cell line panel
Format: cell-based
condition.info: inhibition of proliferation; read-out: IC50 values, range over cell lines
reported.property: IC50

Fill in reported IC50 for this entry: Cc1[nH]c2ccc(F)cc2c1-c1nc2c3cccnc3c3ncccc3c2[nH]1 [COMPOUND I]
57 to 1750 nM
